# measuredTarget: T1, recombinant human DLL4 (human, UniProt Q9NR61 25-522)
# T1 construct: also called rhDLL4; hDLL4
# T1 sequence (Q9NR61 25-522): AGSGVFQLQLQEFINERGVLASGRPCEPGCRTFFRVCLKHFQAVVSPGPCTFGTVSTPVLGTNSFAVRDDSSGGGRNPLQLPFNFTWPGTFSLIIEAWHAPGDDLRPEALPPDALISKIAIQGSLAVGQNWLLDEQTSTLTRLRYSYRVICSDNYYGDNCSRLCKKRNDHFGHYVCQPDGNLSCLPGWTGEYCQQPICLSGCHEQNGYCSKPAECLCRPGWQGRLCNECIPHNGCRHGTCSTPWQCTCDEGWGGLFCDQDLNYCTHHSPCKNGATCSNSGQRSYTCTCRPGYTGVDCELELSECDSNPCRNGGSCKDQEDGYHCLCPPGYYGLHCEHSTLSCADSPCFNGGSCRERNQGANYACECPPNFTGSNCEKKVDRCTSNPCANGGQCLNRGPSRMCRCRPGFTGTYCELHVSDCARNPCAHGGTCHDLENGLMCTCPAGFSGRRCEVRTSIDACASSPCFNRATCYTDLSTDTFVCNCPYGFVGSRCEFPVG
# procedureSummary: binding ELISA, coated rhDLL4
Item-by-item account of EC50
Please give a number only; it is taken to be in nM.

{"binder": "DLLBII08A09 (VHH, also called DLLBII8A09) VHH: EVQLVESGGGLVQPGGSLRLSCAASGFTLDYYNIGWFRQAPGKEREWVSCINSSDGSTYYADSVKGRFTISRDNAKNTVYLQMNSLKPEDTAVYYCAAPFAYYSNLCGVNGYDYWGQGTQVTVSS", "EC50 / nM": 0.9}
{"binder": "DLLBII62C11 (VHH) VHH: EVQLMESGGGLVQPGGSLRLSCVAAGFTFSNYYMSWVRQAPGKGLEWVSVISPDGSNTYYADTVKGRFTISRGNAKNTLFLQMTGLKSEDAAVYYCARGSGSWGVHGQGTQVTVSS", "EC50 / nM": 137}
{"binder": "DLLBII104G01 (VHH, also called 104G1) VHH: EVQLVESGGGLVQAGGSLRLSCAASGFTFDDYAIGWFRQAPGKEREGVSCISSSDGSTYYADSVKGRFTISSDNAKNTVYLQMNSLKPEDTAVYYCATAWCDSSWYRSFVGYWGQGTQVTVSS", "EC50 / nM": 8.4}

Q. Fill blank: measured EC50 of the binder DLLBII05B11 (VHH, also called DLLBII5B11) VHH: EVQLVESGGGLVQPGGSLRLSCAISGFTLDLHVIGWLRQAPGKEREWVSCISSSDGSTYYADSVKGRFTISRDNAKNTVYLQMNSLKPEDTAVYYCAAPWDSWYCGIGNDYDYWGQGTQVTVSS is ____.
A. 1.8
